Target: IL-23 (p40/p19 heterodimer), endogenous from activated monocytes (Homo sapiens, UniProt P29460;Q9NPF7 SEQ:23-328,SEQ:20-189)
Sequence (P29460 23-328, chain 1 of 2): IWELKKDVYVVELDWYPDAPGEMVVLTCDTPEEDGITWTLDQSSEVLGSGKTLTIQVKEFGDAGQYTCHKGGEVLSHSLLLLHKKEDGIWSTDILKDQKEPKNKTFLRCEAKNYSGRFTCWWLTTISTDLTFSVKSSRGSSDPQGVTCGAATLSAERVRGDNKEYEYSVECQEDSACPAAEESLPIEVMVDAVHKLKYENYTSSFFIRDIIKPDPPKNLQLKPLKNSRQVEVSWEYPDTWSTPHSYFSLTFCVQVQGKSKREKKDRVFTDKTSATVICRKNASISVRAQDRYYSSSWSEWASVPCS
Sequence (Q9NPF7 20-189, chain 2 of 2): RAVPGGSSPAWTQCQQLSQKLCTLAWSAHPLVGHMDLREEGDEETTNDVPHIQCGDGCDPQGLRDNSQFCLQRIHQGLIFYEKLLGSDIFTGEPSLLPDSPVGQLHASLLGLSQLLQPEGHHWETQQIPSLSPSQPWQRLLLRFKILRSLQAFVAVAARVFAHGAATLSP
Test: cell_activity; STAT3 inhibition assay; disrupts G2-C30 loop-tail tertiary contact; IL-23 source not stated for this assay

binder: ARC32225 G2A (ssRNA, mixed 2'-OMe and 2'-F as parent [mixed 2'-OMe and 2'-F as parent (positions not given)]) RNA: AAGGAAAUCAGGCUUUAUCGGGCGCCGCUCCCUGUGCCAUCGUCCGAGAGUAGGUAGUCUGU
IC50: 108 nM
